Values were extracted from patent US9695118B2.

Catalogue of IC50 readings, one per entry.
Target: DDR1 (Homo sapiens (Human), UniProt Q08345)
Sequence (Q08345 19-913): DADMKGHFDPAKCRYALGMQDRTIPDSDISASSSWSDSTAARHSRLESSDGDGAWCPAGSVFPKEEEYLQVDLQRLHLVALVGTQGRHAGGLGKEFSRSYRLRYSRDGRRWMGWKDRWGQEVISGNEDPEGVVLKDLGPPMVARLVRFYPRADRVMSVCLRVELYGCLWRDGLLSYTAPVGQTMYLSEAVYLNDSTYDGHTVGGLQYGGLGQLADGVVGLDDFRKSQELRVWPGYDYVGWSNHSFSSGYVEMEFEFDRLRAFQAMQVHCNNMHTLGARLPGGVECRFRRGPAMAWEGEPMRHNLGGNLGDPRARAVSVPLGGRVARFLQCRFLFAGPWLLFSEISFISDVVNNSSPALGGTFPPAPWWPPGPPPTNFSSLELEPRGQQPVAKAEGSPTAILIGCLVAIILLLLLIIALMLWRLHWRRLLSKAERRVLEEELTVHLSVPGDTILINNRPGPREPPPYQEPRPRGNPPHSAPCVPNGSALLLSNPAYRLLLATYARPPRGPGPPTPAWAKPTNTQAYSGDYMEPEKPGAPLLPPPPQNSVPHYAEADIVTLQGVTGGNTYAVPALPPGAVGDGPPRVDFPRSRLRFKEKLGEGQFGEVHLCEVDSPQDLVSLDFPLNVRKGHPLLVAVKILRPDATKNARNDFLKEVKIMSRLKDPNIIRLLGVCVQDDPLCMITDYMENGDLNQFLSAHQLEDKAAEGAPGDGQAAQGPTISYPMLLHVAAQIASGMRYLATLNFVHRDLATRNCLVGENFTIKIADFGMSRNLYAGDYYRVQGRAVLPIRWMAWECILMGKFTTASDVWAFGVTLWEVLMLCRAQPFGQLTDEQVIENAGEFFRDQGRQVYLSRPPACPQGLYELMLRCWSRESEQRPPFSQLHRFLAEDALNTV
Dear colleague, please return just the value in nM, with no unit written.

molecule="C#CCN(CC#C)[C@H]1CCCN(Cc2c(Cl)cc(C(=O)NCc3cc(Cl)ccc3S(=O)(=O)CC)cc2C(F)(F)F)C1 [DD-23]" parameter=IC50 unitsofmeasure=nM obsvalue=800

Note: attention shifts to another entry.
INPUT: Fill in the recorded IC50 for this molecule, with DDR1 (Homo sapiens (Human), UniProt Q08345) as test system: CCS(=O)(=O)c1ccc(Cl)cc1CNC(=O)c1cc(Cl)c(CN2CCC([N+](C)(C)[O-])CC2)c(C(F)(F)F)c1 [Compound N-24]
OUTPUT: 76
